Ref: patent US11225505B2

# System: Pseudomonas aeruginosa ATCC 27853
# Assay type: cell-based
# Recorded Conditions: ATCC 27853
Where a SMILES comes first, the peptide text is derived from it. Bridges are numbered along the chain shown (N, C = ends). [ ]: non-standard residue; d: D form. The star is where a group is joined. Benzothiophen(2-yl)carbonyl = O=C(c1cc2ccccc2s1)*; X36 = O=C(c1ncc(Br)cc1Br)*; X67 = O=C(c1cc(Br)sc1Br)*; Dab = NCC[C@H](N)C(=O)O; Abu = CC[C@H](N)C(=O)O; Dap = NC[C@H](N)C(=O)O
Outcome Measure: Minimum inhibitory concentration (µg/mL)
Answer in µg/mL, number only, no unit symbol.

Some compounds with recorded Minimum inhibitory concentration:
CC[C@@H]1NC(=O)[C@@H](CC(C)C)NC(=O)[C@H](CCN)NC(=O)[C@@H](NC(=O)[C@H](CN)NC(=O)[C@@H](NC(=O)[C@H](CCN)NC(=O)c2cc3ccccc3s2)[C@@H](C)O)CCNC(=O)[C@H]([C@@H](C)O)NC(=O)[C@H](CCN)NC(=O)[C@H](CCN)NC1=O [Compound 50] ({Benzothiophen(2-yl)carbonyl}-[Dab]T[Dap][Dab][Dab][dL][Abu][Dab][Dab]T; lactam 4-C): 0.5
CC[C@@H]1NC(=O)[C@@H](CC(C)C)NC(=O)[C@H](CCN)NC(=O)[C@@H](NC(=O)[C@H](CN)NC(=O)[C@@H](NC(=O)[C@H](CCN)NC(=O)c2cc(Br)sc2Br)[C@@H](C)O)CCNC(=O)[C@H]([C@@H](C)O)NC(=O)[C@H](CCN)NC(=O)[C@H](CCN)NC1=O [Compound 76] (X67-[Dab]T[Dap][Dab][Dab][dL][Abu][Dab][Dab]T; lactam 4-C): 0.25

// query Give Minimum inhibitory concentration (Pseudomonas aeruginosa ATCC 27853) of the following compound: CC[C@@H]1NC(=O)[C@@H](CC(C)C)NC(=O)[C@H](CCN)NC(=O)[C@@H](NC(=O)[C@H](CN)NC(=O)[C@@H](NC(=O)[C@H](CCN)NC(=O)c2ncc(Br)cc2Br)[C@@H](C)O)CCNC(=O)[C@H]([C@@H](C)O)NC(=O)[C@H](CCN)NC(=O)[C@H](CCN)NC1=O [Compound 22] (X36-[Dab]T[Dap][Dab][Dab][dL][Abu][Dab][Dab]T; lactam 4-C)
// result 0.5
